These measurements were taken from patent US20120321619A1.

SUBJECT OF TEST: T1, recombinant soluble human C4.4a (human, UniProt O95274 31-308)
T1 construct: recombinant, soluble, purified protein; also called hC4.4a; full length C4.4a
T1 sequence: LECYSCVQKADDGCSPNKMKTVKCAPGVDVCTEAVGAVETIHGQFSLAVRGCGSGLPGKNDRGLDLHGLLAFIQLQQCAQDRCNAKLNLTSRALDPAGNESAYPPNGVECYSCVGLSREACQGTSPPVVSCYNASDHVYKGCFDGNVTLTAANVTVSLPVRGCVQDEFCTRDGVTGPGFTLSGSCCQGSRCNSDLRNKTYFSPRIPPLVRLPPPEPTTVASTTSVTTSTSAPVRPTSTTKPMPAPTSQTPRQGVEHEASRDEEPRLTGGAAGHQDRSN
PROTOCOL: direct ELISA, Fab supernatant on coated human C4.4a, signal normalized to Fab quantity
RESULT TYPE: normalized affinity signal (median)
Could you keep your reply to the number by itself?

[[record]]
binder = "M31-B01 Fab LC T24S (Fab, V domains shown, Fab with 3×HA-tag and hexa-histidine tag at the C-terminus of the heavy chain, culture supernatant) VH: EVQLLESGGGLVQPGGSLRLSCAASGFTFSNAWMSWVRQAPGKGLEWVSYISSSGSTIYYADSVKGRFTISRDNSKNTLYLQMNSLRAEDTAVYYCAREGLWAFDYWGQGTLVTVTS VL: QSVLTQPPSASGTPGQRVTISCSGSSSNIGAGYVVHWYQQLPGTAPKLLIYDNNKRPSGVPDRFSGSKSGTSASLAISGLRSEDEADYYCAAWDDRLNGPVFGGGTKLTVLG"
result_type = "normalized affinity signal (median)"
readout_value = 0.77

[[record]]
binder = "M31-B01 Fab HC N31S (Fab, V domains shown, Fab with 3×HA-tag and hexa-histidine tag at the C-terminus of the heavy chain, culture supernatant) VH: EVQLLESGGGLVQPGGSLRLSCAASGFTFSSAWMSWVRQAPGKGLEWVSYISSSGSTIYYADSVKGRFTISRDNSKNTLYLQMNSLRAEDTAVYYCAREGLWAFDYWGQGTLVTVTS VL: QSVLTQPPSASGTPGQRVTISCTGSSSNIGAGYVVHWYQQLPGTAPKLLIYDNNKRPSGVPDRFSGSKSGTSASLAISGLRSEDEADYYCAAWDDRLNGPVFGGGTKLTVLG"
result_type = "normalized affinity signal (median)"
readout_value = 1.53


# evaluate next
Data request: Would you kindly share the measured normalized affinity signal (median) for M31-B01 Fab LC K53Q (Fab, V domains shown, Fab with 3×HA-tag and hexa-histidine tag at the C-terminus of the heavy chain, culture supernatant) VH: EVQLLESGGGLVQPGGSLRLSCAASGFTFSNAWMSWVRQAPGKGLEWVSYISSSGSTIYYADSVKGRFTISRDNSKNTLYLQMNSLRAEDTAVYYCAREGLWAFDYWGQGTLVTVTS VL: QSVLTQPPSASGTPGQRVTISCTGSSSNIGAGYVVHWYQQLPGTAPKLLIYDNNQRPSGVPDRFSGSKSGTSASLAISGLRSEDEADYYCAAWDDRLNGPVFGGGTKLTVLG ?
Data returned: 1.12
